- EXPERIMENT_DESCRIPTION: Oral pharmacokinetics (solution and tablet), Study 1 and Study 2
- Assay type: in vivo, human
- CONDITION_PARAMETERS: male, human, plasma; 200 mg oral dose; read-out: relative bioavailability of the tablet to the solution
- Method: Plasma samples were analyzed for Compound I using a validated liquid chromatography with tandem mass spectrometric detection (LC/MS/MS) method. Relative bioavailability of tablet and solution formulations for AUCt, AUC∞, and Cmax were assessed. A linear mixed effects model was fitted to the log-transformed PK parameters (AUCt, AUC∞, and Cmax). Included in the model were treatment, period, and sequence as fixed factors and subjects nested within sequences as a random factor. […]
EXPERIMENTAL_READOUT: bioavailability (%)

{"columns": ["COMPOUND", "UNIT_DESCRIPTOR", "REPORTED_MEASUREMENT"],
 "data": [
  ["CN1CCC(C(=O)c2cccc(NC(=O)c3c(F)cc(F)cc3F)n2)CC1 [Compound I]", "%", 100]
]}
